assay: activity coefficient (dimensionless); of the first substance listed, at infinite dilution; xn = mol fraction of the nth substance listed; conditions: 348.15 K; 101 kPa; Liquid; Chromatography; x1 = 0
endpoint: activity coefficient
Write the value as a bare number.

Req: Reported activity coefficient, molecule CC(C)=O [acetone] + COCC[N+]1(C)CCCC1.O=S(=O)([N-]S(=O)(=O)C(F)(F)F)C(F)(F)F : ____
Resp: 0.5

Req: Reported activity coefficient, molecule C=CCCCCCC [oct-1-ene] + COCC[N+]1(C)CCCC1.O=S(=O)([N-]S(=O)(=O)C(F)(F)F)C(F)(F)F : ____
Resp: 17.3

Req: Reported activity coefficient, molecule CCCCCCCCC [nonane] + COCC[N+]1(C)CCCC1.O=S(=O)([N-]S(=O)(=O)C(F)(F)F)C(F)(F)F : ____
Resp: 44.3

Req: Reported activity coefficient, molecule CC(C)CO [2-methyl-1-propanol] + COCC[N+]1(C)CCCC1.O=S(=O)([N-]S(=O)(=O)C(F)(F)F)C(F)(F)F : ____
Resp: 2.01

Req: Reported activity coefficient, molecule C1=CCCCC1 [cyclohexene] + COCC[N+]1(C)CCCC1.O=S(=O)([N-]S(=O)(=O)C(F)(F)F)C(F)(F)F : ____
Resp: 5.44

Req: Reported activity coefficient, molecule Cc1ccccc1C [1,2-dimethylbenzene] + COCC[N+]1(C)CCCC1.O=S(=O)([N-]S(=O)(=O)C(F)(F)F)C(F)(F)F : ____
Resp: 1.98

Req: Reported activity coefficient, molecule C1CCOC1 [tetrahydrofuran] + COCC[N+]1(C)CCCC1.O=S(=O)([N-]S(=O)(=O)C(F)(F)F)C(F)(F)F : ____
Resp: 0.86

Req: Reported activity coefficient, molecule C1CCCCC1 [cyclohexane] + COCC[N+]1(C)CCCC1.O=S(=O)([N-]S(=O)(=O)C(F)(F)F)C(F)(F)F : ____
Resp: 9.22

Req: Reported activity coefficient, molecule c1ccccc1 [benzene] + COCC[N+]1(C)CCCC1.O=S(=O)([N-]S(=O)(=O)C(F)(F)F)C(F)(F)F : ____
Resp: 1.07

Req: Reported activity coefficient, molecule CCCC=O [butanal] + COCC[N+]1(C)CCCC1.O=S(=O)([N-]S(=O)(=O)C(F)(F)F)C(F)(F)F : ____
Resp: 0.851

Req: Reported activity coefficient, molecule CCc1ccccc1 [ethylbenzene] + COCC[N+]1(C)CCCC1.O=S(=O)([N-]S(=O)(=O)C(F)(F)F)C(F)(F)F : ____
Resp: 2.25

Req: Reported activity coefficient, molecule Cc1ccc(C)cc1 [1,4-dimethylbenzene] + COCC[N+]1(C)CCCC1.O=S(=O)([N-]S(=O)(=O)C(F)(F)F)C(F)(F)F : ____
Resp: 2.2

Req: Reported activity coefficient, molecule CCOC(C)=O [ethyl acetate] + COCC[N+]1(C)CCCC1.O=S(=O)([N-]S(=O)(=O)C(F)(F)F)C(F)(F)F : ____
Resp: 1

Req: Reported activity coefficient, molecule CCCCCCC [heptane] + COCC[N+]1(C)CCCC1.O=S(=O)([N-]S(=O)(=O)C(F)(F)F)C(F)(F)F : ____
Resp: 22.6

Req: Reported activity coefficient, molecule C=C(C)c1ccccc1 [(1-methylethenyl)benzene] + COCC[N+]1(C)CCCC1.O=S(=O)([N-]S(=O)(=O)C(F)(F)F)C(F)(F)F : ____
Resp: 2.03

Req: Reported activity coefficient, molecule c1ccsc1 [thiophene] + COCC[N+]1(C)CCCC1.O=S(=O)([N-]S(=O)(=O)C(F)(F)F)C(F)(F)F : ____
Resp: 0.918

Req: Reported activity coefficient, molecule CC1CCCCC1 [methylcyclohexane] + COCC[N+]1(C)CCCC1.O=S(=O)([N-]S(=O)(=O)C(F)(F)F)C(F)(F)F : ____
Resp: 12.7

Req: Reported activity coefficient, molecule CCOC(C)(C)C [2-ethoxy-2-methylpropane] + COCC[N+]1(C)CCCC1.O=S(=O)([N-]S(=O)(=O)C(F)(F)F)C(F)(F)F : ____
Resp: 6.03

Req: Reported activity coefficient, molecule C1CCCC1 [cyclopentane] + COCC[N+]1(C)CCCC1.O=S(=O)([N-]S(=O)(=O)C(F)(F)F)C(F)(F)F : ____
Resp: 6.54

Req: Reported activity coefficient, molecule C#CCCCCCC [1-octyne] + COCC[N+]1(C)CCCC1.O=S(=O)([N-]S(=O)(=O)C(F)(F)F)C(F)(F)F : ____
Resp: 6.48

Req: Reported activity coefficient, molecule C=CCCCCCCCC [1-decene] + COCC[N+]1(C)CCCC1.O=S(=O)([N-]S(=O)(=O)C(F)(F)F)C(F)(F)F : ____
Resp: 33.8

Req: Reported activity coefficient, molecule O [water] + COCC[N+]1(C)CCCC1.O=S(=O)([N-]S(=O)(=O)C(F)(F)F)C(F)(F)F : ____
Resp: 2.26

Req: Reported activity coefficient, molecule C#CCCCCC [1-heptyne] + COCC[N+]1(C)CCCC1.O=S(=O)([N-]S(=O)(=O)C(F)(F)F)C(F)(F)F : ____
Resp: 4.62

Req: Reported activity coefficient, molecule CCCC(C)=O [pentan-2-one] + COCC[N+]1(C)CCCC1.O=S(=O)([N-]S(=O)(=O)C(F)(F)F)C(F)(F)F : ____
Resp: 0.87

Req: Reported activity coefficient, molecule CCC(C)(C)OC [2-methoxy-2-methylbutane] + COCC[N+]1(C)CCCC1.O=S(=O)([N-]S(=O)(=O)C(F)(F)F)C(F)(F)F : ____
Resp: 4.03

Req: Reported activity coefficient, molecule CCC(=O)OC [methyl propanoate] + COCC[N+]1(C)CCCC1.O=S(=O)([N-]S(=O)(=O)C(F)(F)F)C(F)(F)F : ____
Resp: 0.98

Req: Reported activity coefficient, molecule CC#N [acetonitrile] + COCC[N+]1(C)CCCC1.O=S(=O)([N-]S(=O)(=O)C(F)(F)F)C(F)(F)F : ____
Resp: 0.474

Req: Reported activity coefficient, molecule CCCO [propan-1-ol] + COCC[N+]1(C)CCCC1.O=S(=O)([N-]S(=O)(=O)C(F)(F)F)C(F)(F)F : ____
Resp: 1.71

---

assay: activity coefficient (dimensionless); of the first substance listed, at infinite dilution; xn = mol fraction of the nth substance listed; conditions: 338.15 K; 101 kPa; Liquid; Chromatography; x1 = 0
Each record is given yes if its reported activity coefficient is strictly below 6. Records at or above 6 are given no.

Req: is_below(activity coefficient, 6) for C=Cc1ccccc1 [styrene] + COCC[N+]1(C)CCCC1.O=S(=O)([N-]S(=O)(=O)C(F)(F)F)C(F)(F)F ?
Resp: yes

Req: is_below(activity coefficient, 6) for C=CCCCC [hex-1-ene] + COCC[N+]1(C)CCCC1.O=S(=O)([N-]S(=O)(=O)C(F)(F)F)C(F)(F)F ?
Resp: no

Req: is_below(activity coefficient, 6) for CCO [ethanol] + COCC[N+]1(C)CCCC1.O=S(=O)([N-]S(=O)(=O)C(F)(F)F)C(F)(F)F ?
Resp: yes

Req: is_below(activity coefficient, 6) for C=CCCCCCCCC [1-decene] + COCC[N+]1(C)CCCC1.O=S(=O)([N-]S(=O)(=O)C(F)(F)F)C(F)(F)F ?
Resp: no

Req: is_below(activity coefficient, 6) for CCCCCCCC [octane] + COCC[N+]1(C)CCCC1.O=S(=O)([N-]S(=O)(=O)C(F)(F)F)C(F)(F)F ?
Resp: no

Req: is_below(activity coefficient, 6) for C1CCCCCCC1 [cyclooctane] + COCC[N+]1(C)CCCC1.O=S(=O)([N-]S(=O)(=O)C(F)(F)F)C(F)(F)F ?
Resp: no

---

test: activity coefficient (dimensionless); of the first substance listed, at infinite dilution; xn = mol fraction of the nth substance listed; conditions: 328.15 K; 101 kPa; Liquid; Chromatography; x1 = 0
Each record's activity coefficient is compared with lowest: < 2; middle: ≥ 2 and < 10; highest: ≥ 10 to give its class.

Req: Pick a category. Item: Cc1cccc(C)c1 [1,3-dimethylbenzene] + COCC[N+]1(C)CCCC1.O=S(=O)([N-]S(=O)(=O)C(F)(F)F)C(F)(F)F
Resp: middle

Req: Pick a category. Item: CCCCCC [hexane] + COCC[N+]1(C)CCCC1.O=S(=O)([N-]S(=O)(=O)C(F)(F)F)C(F)(F)F
Resp: highest

Req: Pick a category. Item: CC#N [acetonitrile] + COCC[N+]1(C)CCCC1.O=S(=O)([N-]S(=O)(=O)C(F)(F)F)C(F)(F)F
Resp: lowest

Req: Pick a category. Item: C=CCCCC [hex-1-ene] + COCC[N+]1(C)CCCC1.O=S(=O)([N-]S(=O)(=O)C(F)(F)F)C(F)(F)F
Resp: middle

Req: Pick a category. Item: CCC(C)CC [3-methylpentane] + COCC[N+]1(C)CCCC1.O=S(=O)([N-]S(=O)(=O)C(F)(F)F)C(F)(F)F
Resp: highest

Req: Pick a category. Item: C1=CCCCC1 [cyclohexene] + COCC[N+]1(C)CCCC1.O=S(=O)([N-]S(=O)(=O)C(F)(F)F)C(F)(F)F
Resp: middle

Req: Pick a category. Item: CCC(C)O (stereo not drawn) [butan-2-ol] + COCC[N+]1(C)CCCC1.O=S(=O)([N-]S(=O)(=O)C(F)(F)F)C(F)(F)F
Resp: middle

Req: Pick a category. Item: C=CCCCCC [1-heptene] + COCC[N+]1(C)CCCC1.O=S(=O)([N-]S(=O)(=O)C(F)(F)F)C(F)(F)F
Resp: highest

Req: Pick a category. Item: CCC(C)(C)C [2,2-dimethylbutane] + COCC[N+]1(C)CCCC1.O=S(=O)([N-]S(=O)(=O)C(F)(F)F)C(F)(F)F
Resp: highest

Req: Pick a category. Item: COC(C)=O [methyl ethanoate] + COCC[N+]1(C)CCCC1.O=S(=O)([N-]S(=O)(=O)C(F)(F)F)C(F)(F)F
Resp: lowest

Req: Pick a category. Item: CCCC(C)=O [pentan-2-one] + COCC[N+]1(C)CCCC1.O=S(=O)([N-]S(=O)(=O)C(F)(F)F)C(F)(F)F
Resp: lowest

Req: Pick a category. Item: C1CCCCCCC1 [cyclooctane] + COCC[N+]1(C)CCCC1.O=S(=O)([N-]S(=O)(=O)C(F)(F)F)C(F)(F)F
Resp: highest

Req: Pick a category. Item: CCCCCCCC [octane] + COCC[N+]1(C)CCCC1.O=S(=O)([N-]S(=O)(=O)C(F)(F)F)C(F)(F)F
Resp: highest

Req: Pick a category. Item: C1CCCCC1 [cyclohexane] + COCC[N+]1(C)CCCC1.O=S(=O)([N-]S(=O)(=O)C(F)(F)F)C(F)(F)F
Resp: highest

Req: Pick a category. Item: COC(C)(C)C [2-methoxy-2-methylpropane] + COCC[N+]1(C)CCCC1.O=S(=O)([N-]S(=O)(=O)C(F)(F)F)C(F)(F)F
Resp: middle

Req: Pick a category. Item: CCCC=O [butanal] + COCC[N+]1(C)CCCC1.O=S(=O)([N-]S(=O)(=O)C(F)(F)F)C(F)(F)F
Resp: lowest

Req: Pick a category. Item: CC(C)=O [acetone] + COCC[N+]1(C)CCCC1.O=S(=O)([N-]S(=O)(=O)C(F)(F)F)C(F)(F)F
Resp: lowest

Req: Pick a category. Item: CCCCCCCCCC [decane] + COCC[N+]1(C)CCCC1.O=S(=O)([N-]S(=O)(=O)C(F)(F)F)C(F)(F)F
Resp: highest

Req: Pick a category. Item: CCOC(C)=O [ethyl acetate] + COCC[N+]1(C)CCCC1.O=S(=O)([N-]S(=O)(=O)C(F)(F)F)C(F)(F)F
Resp: lowest

Req: Pick a category. Item: C=Cc1ccccc1 [styrene] + COCC[N+]1(C)CCCC1.O=S(=O)([N-]S(=O)(=O)C(F)(F)F)C(F)(F)F
Resp: lowest

Req: Pick a category. Item: Cc1ccc(C)cc1 [1,4-dimethylbenzene] + COCC[N+]1(C)CCCC1.O=S(=O)([N-]S(=O)(=O)C(F)(F)F)C(F)(F)F
Resp: middle

Req: Pick a category. Item: C1CCOC1 [tetrahydrofuran] + COCC[N+]1(C)CCCC1.O=S(=O)([N-]S(=O)(=O)C(F)(F)F)C(F)(F)F
Resp: lowest

Req: Pick a category. Item: CCOC(C)(C)C [2-ethoxy-2-methylpropane] + COCC[N+]1(C)CCCC1.O=S(=O)([N-]S(=O)(=O)C(F)(F)F)C(F)(F)F
Resp: middle

Req: Pick a category. Item: CC(C)CC(C)(C)C [2,2,4-trimethylpentane] + COCC[N+]1(C)CCCC1.O=S(=O)([N-]S(=O)(=O)C(F)(F)F)C(F)(F)F
Resp: highest

Req: Pick a category. Item: C=CCCCCCC [oct-1-ene] + COCC[N+]1(C)CCCC1.O=S(=O)([N-]S(=O)(=O)C(F)(F)F)C(F)(F)F
Resp: highest

Req: Pick a category. Item: C1COCCO1 [1,4-dioxane] + COCC[N+]1(C)CCCC1.O=S(=O)([N-]S(=O)(=O)C(F)(F)F)C(F)(F)F
Resp: lowest

Req: Pick a category. Item: O [water] + COCC[N+]1(C)CCCC1.O=S(=O)([N-]S(=O)(=O)C(F)(F)F)C(F)(F)F
Resp: middle
